Target: biotinylated human Gal-3 (hGal-3) (Homo sapiens, UniProt P17931)
Sequence (P17931 whole entry): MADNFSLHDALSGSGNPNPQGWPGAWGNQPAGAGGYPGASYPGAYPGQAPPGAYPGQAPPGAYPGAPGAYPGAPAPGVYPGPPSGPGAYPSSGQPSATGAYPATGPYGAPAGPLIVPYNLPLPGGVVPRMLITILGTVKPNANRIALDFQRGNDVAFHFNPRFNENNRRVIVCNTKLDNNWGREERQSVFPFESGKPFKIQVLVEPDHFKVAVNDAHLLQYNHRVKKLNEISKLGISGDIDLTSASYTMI
Assay: Competitive binding assay: biotinylated hGal-3 binding to microplate-adsorbed asialofetuin (ASF), spectrophotometric
Settings: Gal-3 inhibition, Table 1 (Reference Examples); read-out: IC50
pIC50: −log10 of the molar value.
Measurement kind: pIC50

compound="CCN(C)C(=O)[C@@H](S[C@@H]1O[C@H](CO)[C@H](O)[C@H](n2cc(-c3cc(F)c(F)c(F)c3)nn2)[C@H]1O)C1CCOCC1 [Example 2.56.203S., reference compound]" measurement_kind=pIC50 measured_number=5.16
compound="CCN(C)C(=O)C(S[C@@H]1O[C@H](CO)[C@H](O)[C@H](n2cc(-c3cc(F)c(F)c(F)c3)nn2)[C@H]1O)C(C)C (some centres unmarked) [Example 2.53.203., reference compound]" measurement_kind=pIC50 measured_number=5.11

* * *

Molecular target: human Gal-1 (hGal-1) (Homo sapiens, UniProt P09382)
Sequence (P09382 whole entry): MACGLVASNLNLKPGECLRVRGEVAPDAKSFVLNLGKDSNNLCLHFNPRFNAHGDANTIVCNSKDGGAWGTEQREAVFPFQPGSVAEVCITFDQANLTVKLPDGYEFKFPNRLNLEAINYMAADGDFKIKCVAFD
pIC50: −log10 of the molar value.
Measurement kind: pIC50

Examples from the recorded data:
compound="CCN(C)C(=O)C(S[C@@H]1O[C@H](CO)[C@H](O)[C@H](n2cc(-c3cc(F)c(F)c(F)c3)nn2)[C@H]1O)C1(O)CCN(C(=O)OC)CC1 (some centres unmarked) [Example 2.50.203.]" measured_target="human Gal-1 (hGal-1) (Homo sapiens, UniProt P09382)" measured_number=7.00
compound="CO[C@@H]1[C@@H](n2cc(-c3cc(F)c(F)c(F)c3)nn2)[C@@H](O)[C@@H](CO)O[C@H]1SC(C(=O)N1CCC(F)(F)CC1)C1(O)CCC2(CC2)CC1 (some centres unmarked) [Example 2.67.226.1.]" measured_target="human Gal-1 (hGal-1) (Homo sapiens, UniProt P09382)" measured_number=6.77
compound="CCN(C)C(=O)[C@@H](S[C@@H]1O[C@H](CO)[C@H](O)[C@H](n2cc(-c3cc(F)c(F)c(F)c3)nn2)[C@H]1O)C(O)(CC)CC [Example 2.32.203S.]" measured_target="human Gal-1 (hGal-1) (Homo sapiens, UniProt P09382)" measured_number=6.14
compound="CN(CC(F)(F)F)C(=O)C(S[C@@H]1O[C@H](CO)[C@H](O)[C@H](n2cc(-c3cc(F)c(F)c(F)c3)nn2)[C@H]1O)C1(O)CCCC1 (some centres unmarked) [Example 2.38.219.]" measured_target="human Gal-1 (hGal-1) (Homo sapiens, UniProt P09382)" measured_number=6.96

P. O=C([C@@H](S[C@@H]1O[C@H](CO)[C@H](O)[C@H](n2cc(-c3cc(F)c(F)c(F)c3)nn2)[C@H]1O)C1(O)CCC1)N1CCCCC1 [Example 2.34.208S.]
Q. CCN(C)C(=O)[C@@H](S[C@@H]1O[C@H](CO)[C@H](O)[C@H](n2cc(-c3cc(F)c(F)c(F)c3)nn2)[C@H]1O)C1(O)CCN(C(=O)NC2CC2)CC1 [Example 2.49.203S.]
R. CN(CC(C)(C)C)C(=O)C(S[C@@H]1O[C@H](CO)[C@H](O)[C@H](n2cc(-c3cc(F)c(F)c(F)c3)nn2)[C@H]1O)C(C)(C)O (some centres unmarked) [Example 2.31.228.]
S. CN(Cc1cn(C)cn1)C(=O)C(S[C@@H]1O[C@H](CO)[C@H](O)[C@H](n2cc(-c3cc(F)c(F)c(F)c3)nn2)[C@H]1O)C1(O)CCOCC1 (some centres unmarked) [Example 2.41.215.]
Arrange the 4 entries by pIC50 so the values rise. List the labels, following the order given in the request.
R, S, P, Q

a. CO[C@@H]1[C@@H](n2cc(-c3cc(F)c(F)c(F)c3)nn2)[C@@H](O)[C@@H](CO)O[C@H]1SC(C(=O)N(C)CC(C)(C)F)C1(O)CCC(F)(F)CC1 (some centres unmarked) [Example 2.44.222.1.]
b. CO[C@@H]1[C@@H](n2cc(-c3cc(F)c(F)c(F)c3)nn2)[C@@H](O)[C@@H](CO)O[C@H]1SC(C(=O)N(C)CCC1CC1)C1(O)CCC(F)(F)CC1 (some centres unmarked) [Example 2.44.217.I.]
c. CC(C)(O)[C@@H](S[C@@H]1O[C@H](CO)[C@H](O)[C@H](n2cc(-c3cc(F)c(F)c(F)c3)nn2)[C@H]1O)C(=O)N1CCCC1 [Example 2.31.211R]
Put the items in sequence by pIC50, from largest down. Response field: labels, in requested order.
b, a, c

* * *

Target: biotinylated human Gal-3 (hGal-3) (Homo sapiens, UniProt P17931)
Assay: Competitive binding assay: biotinylated hGal-3 binding to microplate-adsorbed asialofetuin (ASF), spectrophotometric
Conditions: Gal-3 inhibition, Table 5; read-out: IC50
Measurement kind: IC50 (nM)

compound="CN(CC(C)(C)F)C(=O)C(S[C@@H]1O[C@H](CO)[C@H](O)[C@H](n2cc(-c3cc(F)c(F)c(F)c3)nn2)[C@H]1O)C1(O)CCC1 (some centres unmarked)" measured_number=410

P. O=C(C(S[C@@H]1O[C@H](CO)[C@H](O)[C@H](n2cc(-c3cc(F)c(F)c(F)c3)nn2)[C@H]1O)C1(O)CCC1)N1CCC1 (some centres unmarked)
Q. O=C([C@@H](S[C@@H]1O[C@H](CO)[C@H](O)[C@H](n2cc(-c3cc(F)c(F)c(F)c3)nn2)[C@H]1O)C1(O)CCC1)N1CCC1 [Example 2.34.206S.]
R. CN(CC(C)(C)F)C(=O)[C@H](S[C@@H]1O[C@H](CO)[C@H](O)[C@H](n2cc(-c3cc(F)c(F)c(F)c3)nn2)[C@H]1O)C1(O)CCCCC1 [Example 2.39.222R.]
S. CN(CC1CC1)C(=O)[C@@H](S[C@@H]1O[C@H](CO)[C@H](O)[C@H](n2cc(-c3cc(F)c(F)c(F)c3)nn2)[C@H]1O)C1(O)CC(F)(F)C1 [Example 2.33.218S.]
T. O=C([C@@H](S[C@@H]1O[C@H](CO)[C@H](O)[C@H](n2cc(-c3cc(F)c(F)c(F)c3)nn2)[C@H]1O)C1(O)CCC1)N1CCCCC1 [Example 2.34.208S.]
Given 5 compounds, produce a descending ranking by IC50. Response format: the labels, sorted as the prompt asks.
R, P, Q, T, S
(R: 10200 nM, P: 1200 nM, Q: 340 nM, T: 140 nM, S: 40 nM)

a. O=C([C@H](S[C@@H]1O[C@H](CO)[C@H](O)[C@H](n2cc(-c3cc(F)c(F)c(F)c3)nn2)[C@H]1O)C1(O)CCC(F)(F)CC1)N1CC(F)(F)C1 [Example 2.44.227R.]
b. CCN(C)C(=O)[C@@H](S[C@@H]1O[C@H](CO)[C@H](O)[C@H](n2cc(-c3cc(F)c(F)c(F)c3)nn2)[C@H]1O)C1(O)CC(F)(F)C1 [Example 2.33.203S.]
c. CN(C(=O)C(S[C@@H]1O[C@H](CO)[C@H](O)[C@H](n2cc(-c3cc(F)c(F)c(F)c3)nn2)[C@H]1O)C1(O)CCCC1)C1CCC1 (some centres unmarked)
d. CN(CC(C)(C)C)C(=O)[C@H](S[C@@H]1O[C@H](CO)[C@H](O)[C@H](n2cc(-c3cc(F)c(F)c(F)c3)nn2)[C@H]1O)C1(O)CCC1 [Example 2.34.228R.]
e. O=C([C@H](S[C@@H]1O[C@H](CO)[C@H](O)[C@H](n2cc(-c3cc(F)c(F)c(F)c3)nn2)[C@H]1O)C1(O)CCC1)N1CCC1 [Example 2.34.206R.]
Rank by IC50 (largest to smallest). State the ranking by listing the labels in the requested order.
d, e, a, b, c

* * *

Molecular target: human Gal-1 (hGal-1) (Homo sapiens, UniProt P09382)
Experiment: Competitive binding assay: biotinylated hGal-1 binding to microplate-adsorbed asialofetuin (ASF), spectrophotometric
Conditions: hGal-1 binding to asialofetuin; Table 15; R and S epimers of selected Examples also listed; read-out: IC50 (Galectin-1 inhibition)
Description: Biological Assay Evaluation of Compound Inhibitory Activity (IC50) The inhibitory activity of compounds is determined in competitive binding assays. This spectrophotometric assay measures the binding of biotinylated human Gal-3 (hGal-3) or human Gal-1 (hGal-1), respectively, to a microplate-adsorbed glycoprotein, asialofetuin (ASF) (Proc Natl Acad Sci USA. 2013 Mar. 26; 110(13):5052-7.). […] The calculated IC50 values may fluctuate depending on the daily assay performance. […]
pIC50: −log10 of the molar value.
Measurement kind: pIC50

compound="CCN(C)C(=O)C(S[C@@H]1O[C@H](CO)[C@H](O)[C@H](n2cc(-c3cccc(F)c3)nn2)[C@H]1O)C1(O)CCOCC1 (some centres unmarked)" measured_target="human Gal-1 (hGal-1) (Homo sapiens, UniProt P09382)" measured_number=6.80
compound="CO[C@@H]1[C@@H](n2cc(-c3cc(F)c(F)c(F)c3)nn2)[C@@H](O)[C@@H](CO)O[C@H]1S[C@@H](C(=O)N(C)c1ccccn1)C1(O)CCC(F)(F)CC1 [Example 2.41.233R.I.]" measured_target="human Gal-1 (hGal-1) (Homo sapiens, UniProt P09382)" measured_number=5.15
compound="CCN(C)C(=O)[C@H](S[C@@H]1O[C@H](CO)[C@H](O)[C@H](n2cc(-c3cc(F)c(F)c(F)c3)nn2)[C@H]1O)C1(O)CCN(C(=O)NC2CC2)CC1 [Example 2.49.203R.]" measured_target="human Gal-1 (hGal-1) (Homo sapiens, UniProt P09382)" measured_number=5.35

A. CN(C(=O)[C@H](S[C@@H]1O[C@H](CO)[C@H](O)[C@H](n2cc(-c3cc(F)c(F)c(F)c3)nn2)[C@H]1O)C1(O)CCOCC1)C1COC1 [Example 2.41.235R.]
B. CCN(C(=O)C(S[C@@H]1O[C@H](CO)[C@H](O)[C@H](n2cc(-c3cc(F)c(F)c(F)c3)nn2)[C@H]1O)C1(O)CCOCC1)c1ccccc1 (some centres unmarked)
Which numeric pIC50 is bigger, that of A or that of B ? Mark your selection by writing its label.
B
